tested.system: Kell protein (Homo sapiens)
Construct: placing the cDNA that encodes the extracellular portion of Kell in a baculovirus transfer vector pAcGP67-A
Sequence (P23276 68-732): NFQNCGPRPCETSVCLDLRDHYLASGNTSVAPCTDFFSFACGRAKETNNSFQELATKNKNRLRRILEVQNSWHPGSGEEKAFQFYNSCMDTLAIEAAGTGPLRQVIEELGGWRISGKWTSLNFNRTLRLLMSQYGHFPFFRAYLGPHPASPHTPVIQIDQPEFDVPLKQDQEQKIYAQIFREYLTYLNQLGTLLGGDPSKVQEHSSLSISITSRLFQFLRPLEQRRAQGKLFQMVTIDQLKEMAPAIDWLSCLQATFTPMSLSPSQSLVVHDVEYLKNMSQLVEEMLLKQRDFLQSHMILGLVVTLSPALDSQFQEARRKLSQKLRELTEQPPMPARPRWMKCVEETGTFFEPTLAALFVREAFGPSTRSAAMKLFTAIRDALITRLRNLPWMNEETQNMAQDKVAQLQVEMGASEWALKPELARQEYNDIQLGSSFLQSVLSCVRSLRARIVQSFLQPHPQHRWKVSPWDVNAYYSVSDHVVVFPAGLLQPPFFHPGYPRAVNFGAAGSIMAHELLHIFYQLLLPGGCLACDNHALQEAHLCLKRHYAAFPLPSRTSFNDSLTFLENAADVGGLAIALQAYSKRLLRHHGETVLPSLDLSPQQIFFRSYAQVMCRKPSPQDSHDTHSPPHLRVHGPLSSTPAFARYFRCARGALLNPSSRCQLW
protocol.summary: Inhibition of Kell proteolytic activity by phosphoramidon
cond: Kell protease; read-out: Concentration which gives 50% of inhibition
measurement.type: IC50

IC50 lookup needed for CC(C)C[C@H](NP(=O)(O)O[C@@H]1O[C@@H](C)[C@H](O)[C@@H](O)[C@H]1O)C(=O)N[C@@H](Cc1c[nH]c2ccccc12)C(=O)O , thanks.
50 to 100 µM
